Target: ITK (Homo sapiens)
Sequence (Q08881 whole entry): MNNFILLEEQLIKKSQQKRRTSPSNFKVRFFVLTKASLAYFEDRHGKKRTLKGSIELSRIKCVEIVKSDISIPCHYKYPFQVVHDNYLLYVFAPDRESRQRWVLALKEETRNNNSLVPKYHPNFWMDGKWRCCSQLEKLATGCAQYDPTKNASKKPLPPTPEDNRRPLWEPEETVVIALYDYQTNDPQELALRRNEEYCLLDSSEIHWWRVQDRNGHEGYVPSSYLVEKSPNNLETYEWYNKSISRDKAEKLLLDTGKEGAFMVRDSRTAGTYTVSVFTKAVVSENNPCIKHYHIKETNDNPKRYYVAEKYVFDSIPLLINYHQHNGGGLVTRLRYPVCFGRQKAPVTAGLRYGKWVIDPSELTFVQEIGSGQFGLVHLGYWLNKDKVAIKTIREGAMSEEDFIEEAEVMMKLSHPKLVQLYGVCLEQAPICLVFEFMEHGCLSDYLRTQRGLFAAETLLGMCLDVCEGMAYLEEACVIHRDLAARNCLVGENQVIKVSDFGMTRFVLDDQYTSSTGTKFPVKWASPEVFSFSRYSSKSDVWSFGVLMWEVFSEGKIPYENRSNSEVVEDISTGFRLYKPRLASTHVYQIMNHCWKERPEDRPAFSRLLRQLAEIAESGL
I'd appreciate it if you could supply pKi values for the items below.
Answers are plain numbers, as −log10 of the molar value.

## Input Short answer please: pKi, ITK (Homo sapiens), entry CC1CC(C(c2ccccc2)n2cc(NC(=O)c3n[nH]c4c3CCC(C)(C)C4)cn2)CCS1(=O)=O (single isomer, unassigned) [Example 139c]
## Output 7.92

## Input Short answer please: pKi, ITK (Homo sapiens), entry CC(c1nccs1)n1cc(NC(=O)c2n[nH]c3c2CCC(C)(C)C3)cn1 (single isomer, unassigned) [Example 92b]
## Output 8.00

## Input Short answer please: pKi, ITK (Homo sapiens), entry CC12Cc3c(C(=O)Nc4cnn(C(c5ccccc5)C5CCS(=O)(=O)CC5)c4)n[nH]c3C1C2 (single isomer, unassigned) [Example 152d]
## Output 7.82

## Input Short answer please: pKi, ITK (Homo sapiens), entry CC1(C)CCc2c(C(=O)Nc3cnn(C(c4ccccc4)C4(F)CNC4)c3)n[nH]c2C1 (single isomer, unassigned) [Example 49a]
## Output 8.00

## Input Short answer please: pKi, ITK (Homo sapiens), entry CC1(C)CCc2c(C(=O)Nc3cnn(C(c4cccnc4)C4CC[S+]([O-])CC4)c3)n[nH]c2C1 (single isomer, unassigned) [Example 147c]
## Output 8.15

// each compound listed below needs its pKi
1. CC1(C)CCc2c(C(=O)Nc3cnn(C(c4cccc(S(C)(=O)=O)c4)C4CC4)c3)n[nH]c2C1 (single isomer, unassigned) [Example 125a]
2. CC(c1cncc(F)c1)n1cc(NC(=O)c2n[nH]c3c2CCC(C)(C)C3)cn1 (single isomer, unassigned) [Example 108a]
3. CN(C)CC(c1ccccc1)n1cc(NC(=O)c2n[nH]c3c2CC(C)(C)C3)cn1 (single isomer, unassigned) [Example 96b]
4. CC1(C)CCc2c(C(=O)Nc3cnn(C(c4nccs4)C4CCS(=O)(=O)CC4)c3)n[nH]c2C1 (single isomer, unassigned) [Example 87b]
5. CC1(C)CCc2c(C(=O)Nc3cnn(C(c4ccccc4)C4(F)CNC4)c3)n[nH]c2C1 (single isomer, unassigned) [Example 49b]

## Output
8.70
7.77
8.70
9.00
8.70

// each compound listed below needs its pKi
1. CC12Cc3c(C(=O)Nc4cnn(Cc5ccccc5)c4)n[nH]c3C1C2 (single isomer, unassigned) [Example 151a]
2. CC1(C)Cc2[nH]nc(C(=O)Nc3cnn(C(c4ccccc4)C4CCS(=O)(=O)CC4)c3)c2C1 (single isomer, unassigned) [Example 94b]
3. CC1(C)CCc2c(C(=O)Nc3cnn(C(c4cccc(C#N)c4)C4CCS(=O)(=O)CC4)c3)n[nH]c2C1 (single isomer, unassigned) [Example 110a]

## Output
7.80
7.89
9.70

Hello, the source for this data is patent US20160326142A1, in case you need it.
